Across several publications, the following IC50 results were reported for Protein kinase C alpha type (Homo sapiens).
reported.metric: IC50

                                   compound  endpoint_value
0  O=C1NN=C2COc3ccc(NC4CNC4)cc3N2C1c1ccccc1 (stereo not given)      > 50000 nM
1  CC(C)(C)c1nnc2ccc(-c3ocnc3-c3ccc(F)cc3F)cn12      > 10000 nM
2  CC(C)(O)C(=O)N1CCN(c2ccc(C(F)(F)F)c(C3=C(c4c[nH]c5ccccc45)C(=O)NC3=O)c2)CC1           13 nM
3  Cc1cc2c(cc1NC1CNC1)N1C(=NNC(=O)C1C)CO2 (stereo not given)         4100 nM
4  CN1C(=O)c2c(c3c4ccccc4n(C4OC(CO)C(O)C(O)C4O)c3c3[nH]c4ccccc4c23)C1=O (stereo in doubt; 10)        99000 nM
5         Cc1[nH]c2ncnc(Nc3cccc(Cl)c3)c2c1C     > 100000 nM
6  Cc1ccc2ccc(CN)cc2c1C1=C(c2cn(C)c3ccccc23)C(=O)NC1=O           95 nM
7  Clc1ccc2c(c1Nc1ncnc3cc(OCCCN4CCCC4)cc(OC4CCOCC4)c13)OCO2      > 10000 nM
8  COc1cc2c(cc1-c1cnn3ccc(-c4ccnc5[nH]ccc45)cc13)CN(C(C)=O)C2          380 nM
9  CN(C)Cc1ccc2ccc(Cl)c(C3=C(c4c[nH]c5ccccc45)C(=O)NC3=O)c2c1          0.5 nM
